Reported Activity values follow for various compounds
# Tested on: H9c2
# experiment-notes: Increase in cytoplasmic intracellular calcium level in differentiated rat H9c2 cells depolarized through 60 mM KCl application in presence of extracellular calcium assessed as cells that prolonged KCl-dependent intracellular [Ca2+] transient at 10 uM by Fura-2-AM dye based epifluorescent microscopy
# Type: functional
property-measured: Activity

>>> df
                                    compound  study_system  property_measured  result
 0             CCOC(=O)c1cc(C#N)c(=O)[nH]c1C          H9c2           Activity      0%
 1      Cc1[nH]c(=O)c(C#N)cc1C(=O)NCc1ccccc1          H9c2           Activity     40%
 2  Cc1[nH]c(=O)c(C#N)cc1C(=O)NC(C)c1ccccc1 (stereo unspecified)          H9c2           Activity      0%
 3    Cc1[nH]c(=O)c(C#N)cc1C(=O)OCCSc1ccccn1          H9c2           Activity      0%
 4               Cc1[nH]c(=O)c(C#N)cc1C(=O)O          H9c2           Activity      0%
 5  Cc1[nH]c(=O)c(C#N)cc1C(=O)OCCSc1nc2ccccc2s1          H9c2           Activity      0%
 6                     Cc1ccc(C#N)c(=O)[nH]1          H9c2           Activity     45%
 7  CCOC(=O)N1CCC(NC(=O)c2cc(C#N)c(=O)[nH]c2C)CC1          H9c2           Activity     25%
 8      Cc1[nH]c(=O)c(C#N)cc1C(=O)OCc1ccccc1          H9c2           Activity      0%
 9  Cc1[nH]c(=O)c(C#N)cc1-c1ccncc1 [MILRINONE]          H9c2           Activity     50%
10  CCC(NC(=O)c1cc(C#N)c(=O)[nH]c1C)c1ccccc1 (stereo unspecified)          H9c2           Activity     30%
